Test system: tRNA 2'-phosphotransferase TPT1 (Candida albicans SC5314)
Experiment: tRNA 2'-phosphotransferase blockers, C. albicans – biochemical, fluorescence polarization, primary screen (AID 1962);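 further: plate controls were DMSO alone for no effect and ferristatin control at 100 nM for full effect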
Settings: recombinant caTPT1, FP RNA substrate dephosphorylation; at 5 µM; hits give high values
Out of some 300,000 compounds screened, about 2,500 (0.83%) were called active. This excerpt belongs to a sample that is enriched for actives.
assayEndpoint: inhibition (%)
Number in %, nothing else.

Dear colleague, I am looking for the recorded inhibition of the following molecule: CN(c1ccccc1)c1ccc(/C=c2\s/c(=C(/C#N)C(=O)C(C)(C)C)n(Cc3ccco3)c2=O)cc1
151

Dear colleague, I am looking for the recorded inhibition of the following molecule: CCOC(=O)c1sc(=S)n2c1[nH]c(=O)c1ccc(C(=O)OC)cc12
-1.57

Dear colleague, I am looking for the recorded inhibition of the following molecule: CC[C@H]1CN2CCc3cc(OC)c(OC)cc3[C@@H]2C[C@@H]1C[C@H]1NCCc2cc(OC)c(OC)cc21
3.04

Dear colleague, I am looking for the recorded inhibition of the following molecule: Cc1ccc(C(=O)NCC(=O)OCC(=O)Nc2cccc(S(=O)(=O)N3CCCC3)c2)cc1C
-0.56

Dear colleague, I am looking for the recorded inhibition of the following molecule: O=C(c1cccc(Br)c1)N1CCN(C2=NS(=O)(=O)c3ccccc32)CC1
0.45

Dear colleague, I am looking for the recorded inhibition of the following molecule: CCCCN(CCCC)CCNC(=O)CN1C(=O)COc2ccc(S(=O)(=O)N3CCOCC3)cc21
-4.55

Dear colleague, I am looking for the recorded inhibition of the following molecule: O=C(O)CCCN1C(=O)C2C3c4ccccc4C(c4ccccc43)[C@@H]2C1=O (stereo partly specified)
2.01

Dear colleague, I am looking for the recorded inhibition of the following molecule: COc1ccc(C(=O)Nc2sc(C)c(C)c2CN2CCOCC2)cc1
2.12

Dear colleague, I am looking for the recorded inhibition of the following molecule: O=S(=O)(c1cccc(-c2nnc(SC(F)F)n2-c2ccccc2)c1)N1CCCCC1
-5.49

Dear colleague, I am looking for the recorded inhibition of the following molecule: CN(c1ccc(OCC(=O)OCC(=O)Nc2cccc([N+](=O)[O-])c2)cc1)S(=O)(=O)c1ccc(F)cc1
-1.05

Dear colleague, I am looking for the recorded inhibition of the following molecule: O=C(N/N=C/c1cccnc1)c1cc2ccccc2cc1O
-1.97

Dear colleague, I am looking for the recorded inhibition of the following molecule: COc1ccc(NC(=O)CN(C)C(=O)c2ccc(COc3ccccc3)o2)cc1
1.15

Dear colleague, I am looking for the recorded inhibition of the following molecule: COc1ccccc1C1SCCN1C(=O)c1ccc([N+](=O)[O-])cc1 (stereo unspecified)
1.69

Dear colleague, I am looking for the recorded inhibition of the following molecule: Nc1c(C(=O)c2cccs2)sc2nsc(SCCN3CCCCC3)c12
68.2

Dear colleague, I am looking for the recorded inhibition of the following molecule: CN(C)c1ccnc2sc(C(=O)c3ccccc3)c(N)c12
2.61

Dear colleague, I am looking for the recorded inhibition of the following molecule: O=C(NNc1c2ccccc2nc2ccccc12)c1cc2ccccc2cc1O
25.8

Dear colleague, I am looking for the recorded inhibition of the following molecule: CC(C)(C)OC(=O)NNc1c2ccccc2nc2ccccc12
-0.98

Dear colleague, I am looking for the recorded inhibition of the following molecule: Nc1nonc1-n1nnc(C(=O)N/N=C/c2ccccc2O)c1CN1CCCC1
-0.45

Dear colleague, I am looking for the recorded inhibition of the following molecule: Cc1cs/c(=N\N=C\c2ccc(O)cc2)n1Cc1ccco1
2.86

Dear colleague, I am looking for the recorded inhibition of the following molecule: Cc1nc2sc(C(=O)c3ccccc3)c(N)c2c2c1CCCC2
-0.9

Dear colleague, I am looking for the recorded inhibition of the following molecule: COc1cc2c(cc1O)[C@H](Cc1ccc(Oc3cc(C[C@@H]4NCCc5cc(OC)c(O)cc54)ccc3O)cc1)NCC2
30
